Just for reference, ChEMBL document CHEMBL1153958 is where these values come from.

# target: Sodium-dependent serotonin transporter (Homo sapiens, UniProt P31645)
# Sequence (P31645 whole entry): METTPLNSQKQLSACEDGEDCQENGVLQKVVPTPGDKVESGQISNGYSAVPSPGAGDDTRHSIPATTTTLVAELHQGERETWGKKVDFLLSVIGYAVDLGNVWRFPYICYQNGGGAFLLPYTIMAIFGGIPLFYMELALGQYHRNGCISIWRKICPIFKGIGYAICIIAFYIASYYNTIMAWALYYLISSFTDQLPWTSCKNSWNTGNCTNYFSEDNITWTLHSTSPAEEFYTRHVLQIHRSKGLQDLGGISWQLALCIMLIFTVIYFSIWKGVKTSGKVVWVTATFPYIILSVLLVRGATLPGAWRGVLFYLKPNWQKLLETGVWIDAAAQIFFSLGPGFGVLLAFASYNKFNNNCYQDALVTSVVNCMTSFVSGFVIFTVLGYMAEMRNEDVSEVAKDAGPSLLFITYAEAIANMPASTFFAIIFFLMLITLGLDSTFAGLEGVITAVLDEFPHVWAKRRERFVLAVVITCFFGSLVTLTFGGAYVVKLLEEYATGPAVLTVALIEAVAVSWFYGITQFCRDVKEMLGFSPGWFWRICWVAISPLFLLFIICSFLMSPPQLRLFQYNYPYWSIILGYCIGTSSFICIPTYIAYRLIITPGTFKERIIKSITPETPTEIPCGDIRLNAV
# measurement_notes: Inhibition of radiolabeled serotonin reuptake at human SERT expressed in HEK293 cells
Below is a list of entries, each paired with its recorded IC50 value.
Answer in µM, number only, no unit symbol.

Here is how some molecules turned out for IC50.
Report IC50 for N#Cc1ccc2cc(OC[C@H]3CCNC3)ccc2c1 please.
0.037

Now give it for c1ccc2cc(OCC3CCNC3)ccc2c1 (racemic) too.
0.025

Now give it for CC(C)CN(Cc1ccc2ccccc2c1)[C@@H]1CCNC1 too.
0.005

Now give it for N#Cc1ccc2ccc(OCC3CCNCC3)cc2c1 too.
0.003

Now give it for c1ccc2cc(COC3CCNCC3)ccc2c1 [LITOXETINE] too.
0.006

Now give it for Cc1c(CCN2CCNCC2)ccc2cc(F)ccc12 too.
0.004

New cases:
Report IC50 for CN(Cc1ccc2ccccc2c1)[C@@H]1CCNC1 please.
0.119

Now give it for CCCCN(Cc1ccc2ccccc2c1)[C@H]1CCNC1 too.
0.0003

Now give it for CN(Cc1ccc2ccccc2c1)[C@H]1CCNC1 too.
0.013

* * *

# target: Sodium-dependent noradrenaline transporter (Homo sapiens, UniProt P23975)
# Sequence (P23975 whole entry): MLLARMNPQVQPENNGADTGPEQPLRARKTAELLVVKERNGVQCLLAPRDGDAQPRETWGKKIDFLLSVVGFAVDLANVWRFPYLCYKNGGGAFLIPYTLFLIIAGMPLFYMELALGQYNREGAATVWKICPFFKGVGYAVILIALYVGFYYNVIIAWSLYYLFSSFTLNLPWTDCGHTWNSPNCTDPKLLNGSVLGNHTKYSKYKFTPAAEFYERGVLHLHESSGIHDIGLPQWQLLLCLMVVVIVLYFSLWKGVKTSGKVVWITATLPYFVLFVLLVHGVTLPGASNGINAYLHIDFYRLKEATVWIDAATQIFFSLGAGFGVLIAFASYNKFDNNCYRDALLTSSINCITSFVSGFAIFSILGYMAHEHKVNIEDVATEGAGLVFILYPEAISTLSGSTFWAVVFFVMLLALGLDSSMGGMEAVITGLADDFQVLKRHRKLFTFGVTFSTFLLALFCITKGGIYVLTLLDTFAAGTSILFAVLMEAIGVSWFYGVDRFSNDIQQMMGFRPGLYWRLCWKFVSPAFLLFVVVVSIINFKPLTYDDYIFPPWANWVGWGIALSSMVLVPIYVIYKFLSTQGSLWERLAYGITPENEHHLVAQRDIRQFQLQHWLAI
# measurement_notes: Inhibition of radiolabeled noradrenaline reuptake at human NET expressed in HEK293 cells
endpoint_label: pIC50
In simple prose, pIC50 is minus the logarithm base ten of a concentration in moles per litre.

Here is how some molecules turned out for pIC50.
Report pIC50 for CCN([C@@H]1CCNC1)S(=O)(=O)c1ccc2ccccc2c1 please.
5.59

Now give it for c1ccc2cc(CN(C3CCC3)C3CCNCC3)ccc2c1 too.
5.82

Now give it for N#Cc1ccc2cc(CO[C@H]3CCNC3)ccc2c1 too.
5.17

Now give it for N#Cc1ccc2cc(OC[C@H]3CCNC3)ccc2c1 too.
6.70

New cases:
Report pIC50 for CN(Cc1ccc2ccccc2c1)[C@@H]1CCNC1 please.
5.52

* * *

# target: UniProt:P31645
# measurement_notes: Inhibition of radiolabeled serotonin reuptake at human SERT expressed in HEK293 cells
# Assay type: cell-based
Decision: IC50 beneath 8 nM gives criterion met; IC50 meeting or exceeding 8 nM gives criterion not met.

Look over these answered cases.
Decide: IC50 of CN([C@@H]1CCNC1)S(=O)(=O)c1ccc2ccccc2c1 strictly below 8 nM?
criterion not met

Now give it for COCC(Oc1ccc2ccccc2c1)C1CCNCC1 (racemic) too.
criterion met

Now give it for N#Cc1ccc2cc(OCC3CCNCC3)ccc2c1 too.
criterion not met

New cases:
Decide: IC50 of Fc1ccc2cc(CCN3CCNCC3)ccc2c1 strictly below 8 nM?
criterion not met

Now give it for N#Cc1ccc2cc(OC[C@@H]3CCNC3)ccc2c1 too.
criterion not met

Now give it for c1ccc2cc(CN(C3CCC3)C3CCNCC3)ccc2c1 too.
criterion met

Now give it for CCCCN([C@H]1CCNC1)S(=O)(=O)c1ccc2ccccc2c1 too.
criterion not met

Now give it for c1ccc2cc(CCN3CCNCC3)ccc2c1 too.
criterion not met

Now give it for Fc1ccc2cc(CO[C@@H]3CCNC3)ccc2c1 too.
criterion met

Now give it for CCN(C1CCNCC1)S(=O)(=O)c1ccc2ccccc2c1 too.
criterion not met

Now give it for N#Cc1ccc2cc(CO[C@H]3CCNC3)ccc2c1 too.
criterion met

Now give it for CCCCN(C1CCNCC1)S(=O)(=O)c1ccc2ccccc2c1 too.
criterion not met
